The entries below are paired with their reported viability, T/C.
Test system: 292921-168-R-J2-PDC complex spheroid growth;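 also: spheroids exposed to compounds for seven days after three days of growth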
Test: Anticancer human tumor 292921-168-R-J2-PDC patient-derived pancreatic carcinoma cell line growth inhibition [AhR]
Conditions: second compound 3.16 µM; first compound 0.03 µM; active compounds read low
quantity_measured: viability, T/C (%)

compound	observed_result
O=C(C=Cn1cnc(-c2cc(C(F)(F)F)cc(C(F)(F)F)c2)n1)NNc1cnccn1 + CC(CO)NC(=O)c1cc(-c2ccc(Cl)cc2)nn(-c2cnn(C)c2)c1=O	67.8
CCc1c2c(nc3ccc(O)cc13)-c1cc3c(c(=O)n1C2)COC(=O)[C@]3(O)CC + CC(CO)NC(=O)c1cc(-c2ccc(Cl)cc2)nn(-c2cnn(C)c2)c1=O	11.3
CCN(c1cc(-c2ccc(CN3CCOCC3)cc2)cc(C(=O)NCc2c(C)cc(C)[nH]c2=O)c1C)C1CCOCC1 + Cc1ccccc1N=Nc1ccc(NC(=O)c2ccnn2C)c(C)c1	74.9
CCN(c1cc(-c2ccc(CN3CCOCC3)cc2)cc(C(=O)NCc2c(C)cc(C)[nH]c2=O)c1C)C1CCOCC1 + CC(CO)NC(=O)c1cc(-c2ccc(Cl)cc2)nn(-c2cnn(C)c2)c1=O	89.4
O=C(C=Cn1cnc(-c2cc(C(F)(F)F)cc(C(F)(F)F)c2)n1)NNc1cnccn1 + Cc1cncc(-c2nc(NCCc3c[nH]c4ccccc34)c3ncn(C(C)C)c3n2)c1	71
CC(C)CC(NC(=O)C(Cc1ccccc1)NC(=O)c1cnccn1)B(O)O (stereo unspecified) + CC(CO)NC(=O)c1cc(-c2ccc(Cl)cc2)nn(-c2cnn(C)c2)c1=O	2.3
